The reader will find IC50 measurements below, all made with UniProt P00523.
State the result as a value with its unit after it.

COc1cc(Nc2c(C#N)cnc3cc(OCCCN4CCN(C)CC4)c(OC)cc23)c(Cl)cc1Cl [bosutinib, reference compound] = 3.3 nM

Turning now to a further record.
Fill in IC50 for record COc1cc2ncc(C#N)c(Nc3ccc(Oc4cccc(NC(=O)Nc5cccc(C(F)(F)F)c5)c4)cc3)c2cc1OC [50A]
3.3 nM
